For each of the molecules below, state its thermal shift delta Tm.
Tested on: LOC_OS02G17970-cb001;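 also: purified Escherichia coli-expressed rice kinase domain construct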
Assay: thermal shift delta Tm vs DMSO control; higher = stronger stabilization (binding)
Details: 12.5 µM; protein concentration 2 µM
Please reply with the bare figure in °C and do not write the unit itself.

### Prompt For the molecule CCOc1cc2ncc(C#N)c(Nc3ccc(F)c(Cl)c3)c2cc1NC(=O)/C=C/CN(C)C [Pelitinib (EKB-569)] , what thermal shift delta Tm is on record?
### Response 0.01

### Prompt For the molecule CCN1/C(=C/C(C)=O)Sc2ccc(OC)cc21 , what thermal shift delta Tm is on record?
### Response 0.27

### Prompt For the molecule CC(C)n1nc(-c2ccc3oc(N)nc3c2)c2c(N)ncnc21 , what thermal shift delta Tm is on record?
### Response 1.04

### Prompt For the molecule O=c1ccc2ccc(O)c(O)c2o1 , what thermal shift delta Tm is on record?
### Response 1.06

### Prompt For the molecule COc1cccc(-c2cc(=O)c3ccccc3o2)c1N , what thermal shift delta Tm is on record?
### Response -0.31

### Prompt For the molecule FC(F)(F)c1ccc(CNc2ccc(Cc3c[nH]c4ncc(Cl)cc34)cn2)cn1 , what thermal shift delta Tm is on record?
### Response 2.01

Every entry's value here was drawn from the supplement of paper PMC9694430.
